Recorded t1/2, one value per entry.
- assayed_system: T1, Human TROP2 ECD (31-274 AA), biotinylated (human, UniProt P09758 31-274, biotinylated (site not stated))
- T1 construct: also called tumor-associated calcium signal transducer 2; Human TROP2-biotin
- T1 sequence: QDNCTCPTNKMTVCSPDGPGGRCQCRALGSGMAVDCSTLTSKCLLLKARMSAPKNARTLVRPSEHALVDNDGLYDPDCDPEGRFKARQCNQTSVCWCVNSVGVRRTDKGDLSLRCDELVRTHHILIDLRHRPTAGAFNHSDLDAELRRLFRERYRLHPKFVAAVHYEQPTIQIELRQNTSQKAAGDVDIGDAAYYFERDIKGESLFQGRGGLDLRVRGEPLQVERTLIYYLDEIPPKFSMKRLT
- method_notes: BLI (Octet), dissociation half-life from biotinylated human TROP2 ECD
All answers are understood in min, so give the number only.

TBD-14 (anti-TROP2 Fab, HC F101A) (Fab, V domains shown) VH: QVQLQQSGSELKKPGASVKVSCKASGYTFTNYGMNWVKQAPGQGLKWMGWINTYTGEPTYTDDFKGRFAFSLDTSVSTAYLQISSLKADDTAVYFCARGGAGSSYWYFDVWGQGSLVTVSS VL: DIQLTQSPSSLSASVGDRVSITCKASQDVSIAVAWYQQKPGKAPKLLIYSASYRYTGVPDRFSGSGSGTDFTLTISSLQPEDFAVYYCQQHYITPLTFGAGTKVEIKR; 4

Continue with the next binder.
q: I am curious: what t1/2 value has been reported for TBD-12 (anti-TROP2 Fab, HC G99A) (Fab, V domains shown) VH: QVQLQQSGSELKKPGASVKVSCKASGYTFTNYGMNWVKQAPGQGLKWMGWINTYTGEPTYTDDFKGRFAFSLDTSVSTAYLQISSLKADDTAVYFCARAGFGSSYWYFDVWGQGSLVTVSS VL: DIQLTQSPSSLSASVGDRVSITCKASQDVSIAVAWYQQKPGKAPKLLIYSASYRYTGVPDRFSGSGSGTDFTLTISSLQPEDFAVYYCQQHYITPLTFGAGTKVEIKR ?
a: 39
